# assayed system: KDR (h) (Homo sapiens)
# Sequence (P35968 20-1356): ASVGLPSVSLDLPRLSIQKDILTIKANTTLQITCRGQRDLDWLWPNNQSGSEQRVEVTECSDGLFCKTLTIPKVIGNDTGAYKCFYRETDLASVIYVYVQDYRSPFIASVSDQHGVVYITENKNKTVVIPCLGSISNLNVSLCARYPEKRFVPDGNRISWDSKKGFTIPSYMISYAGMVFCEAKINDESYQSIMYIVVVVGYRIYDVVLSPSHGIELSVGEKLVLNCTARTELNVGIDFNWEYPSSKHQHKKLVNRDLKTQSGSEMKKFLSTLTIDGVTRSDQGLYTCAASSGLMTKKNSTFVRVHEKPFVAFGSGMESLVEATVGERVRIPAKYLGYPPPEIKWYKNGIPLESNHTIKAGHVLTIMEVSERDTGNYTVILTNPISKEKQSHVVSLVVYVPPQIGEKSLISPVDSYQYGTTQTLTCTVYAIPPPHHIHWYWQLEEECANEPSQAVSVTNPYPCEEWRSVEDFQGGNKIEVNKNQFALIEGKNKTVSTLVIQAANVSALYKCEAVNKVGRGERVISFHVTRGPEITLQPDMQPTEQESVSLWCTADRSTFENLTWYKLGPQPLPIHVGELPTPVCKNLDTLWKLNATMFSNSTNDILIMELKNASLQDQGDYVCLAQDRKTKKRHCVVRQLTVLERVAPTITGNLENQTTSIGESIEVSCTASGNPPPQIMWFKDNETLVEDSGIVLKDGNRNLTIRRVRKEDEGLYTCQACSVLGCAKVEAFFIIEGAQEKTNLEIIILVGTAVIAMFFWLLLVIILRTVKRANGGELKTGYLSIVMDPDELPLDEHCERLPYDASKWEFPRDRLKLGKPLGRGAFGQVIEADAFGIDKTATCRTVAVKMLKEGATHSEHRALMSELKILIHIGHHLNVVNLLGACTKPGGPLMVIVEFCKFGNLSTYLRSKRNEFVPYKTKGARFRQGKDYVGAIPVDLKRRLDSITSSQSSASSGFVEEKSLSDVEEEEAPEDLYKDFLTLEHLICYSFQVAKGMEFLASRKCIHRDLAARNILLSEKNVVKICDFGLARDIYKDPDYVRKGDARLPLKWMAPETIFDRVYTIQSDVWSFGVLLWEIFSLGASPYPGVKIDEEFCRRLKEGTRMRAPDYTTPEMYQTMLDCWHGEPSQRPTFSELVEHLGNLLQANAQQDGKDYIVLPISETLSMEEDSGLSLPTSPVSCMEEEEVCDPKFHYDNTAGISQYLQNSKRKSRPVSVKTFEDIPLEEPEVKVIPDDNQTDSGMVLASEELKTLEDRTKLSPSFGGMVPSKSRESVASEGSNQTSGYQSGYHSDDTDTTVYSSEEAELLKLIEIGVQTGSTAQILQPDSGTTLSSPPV
# procedure summary: KDR (VEGFR2) (enzymatic assay), TR-FRET
# Type: biochemical
# run parameters: average values if tested multiple times, read-out: VEGFR 2 (KDR) pIC50 (converted)

compound	IC50 [nM]
CNCCN(c1ccc2ncc(-c3cn[nH]c3)nc2n1)c1c(F)c(OC)cc(OC)c1F	25.1
COc1ccc(Cl)c(/N=c2\ccc3ncc(-c4cnn(C)c4)nc3n2CC2CCC(=O)N2)c1Cl (stereo not shown) [Compound 92]	309
COc1cc(OC)cc(N(CC(O)C(F)(F)F)c2ccc3ncc(-c4cnn(C)c4)nc3n2)c1 (single isomer, unassigned) [Compound 33]	75.9
COc1cc(OC)c(F)c(N(CCO)c2ccc3ncc(-c4cnn(C)c4)nc3n2)c1F	316
